Exercise: state measured nuclear beta-catenin stimulation for each of the compounds provided.
Assay: stimulators of nuclear beta-catenin in C2C12, primary screen, imaging, WNT3A-conditioned medium, mouse C2C12, NPC library (AID 1117326)
Details: stimulation, at 2 µM, stronger effect = higher value
State just the number; it will be interpreted in %.

Bench note: what nuclear beta-catenin stimulation did Cc1ccc2c(Br)cc(Br)c(O)c2n1 show?
5.5

Bench note: what nuclear beta-catenin stimulation did COc1cc2nc(N3CCN(C(=O)c4ccco4)CC3)nc(N)c2cc1OC show?
7.8

Bench note: what nuclear beta-catenin stimulation did CC(=O)OCC[N+](C)(C)C show?
2.2

Bench note: what nuclear beta-catenin stimulation did CN1CCC(N(Cc2cccs2)c2ccccc2)CC1 show?
5.8

Bench note: what nuclear beta-catenin stimulation did CCC(C(=O)O)c1ccc(N2Cc3ccccc3C2=O)cc1 (centres undefined) show?
-0.1

Bench note: what nuclear beta-catenin stimulation did CC(C)=CCC/C(C)=C/CC/C(C)=C/CCC(=O)OC/C=C(\C)CCC=C(C)C show?
0.6

Bench note: what nuclear beta-catenin stimulation did CC(=O)O[C@@H]1CC2C3CCc4cc(OC(=O)c5ccccc5)ccc4C3CCC2(C)[C@H]1OC(C)=O (some centres undefined) show?
1.1

Bench note: what nuclear beta-catenin stimulation did Cc1ccc(S(=O)(=O)NC(=O)NC2CCCC2)cc1 show?
0.6

Bench note: what nuclear beta-catenin stimulation did CN(C)CCOC(c1ccccc1)c1ccc(Br)cc1 (centres undefined) show?
5.4

* * *

Test: differential killing of epithelial or mesenchymal cells, primary screen, imaging, PC-3E GFP, TEM4-18 mCherry, co-culture (AID 1345086);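 note: cells exposed to compound for 72 h before imaging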
Settings: imaging cell counts, measured here: epithelial PC-3E GFP cell survival, at 1 µM
outcome_measure: normalised cell number
Give the figure only, with no unit attached.

Bench note: what normalised cell number did CCc1cc(C(N)=S)ccn1 show?
1.01

Bench note: what normalised cell number did CCOC(=O)N1CCC(=C2c3ccc(Cl)cc3CCc3cccnc32)CC1 show?
0.99

Bench note: what normalised cell number did O=C(O)CCCc1ccccc1 show?
1.12

Bench note: what normalised cell number did Cc1onc(-c2c(Cl)cccc2Cl)c1C(=O)N[C@@H]1C(=O)N2[C@@H]1SC(C)(C)[C@@H]2C(=O)O show?
1.26

Bench note: what normalised cell number did CC[C@H](C)C(=O)O[C@H]1C[C@@H](C)C=C2C=C[C@H](C)[C@H](CC[C@@H]3C[C@@H](O)CC(=O)O3)[C@H]21 show?
1.39

Bench note: what normalised cell number did CC(C)C(=O)Nc1ccc([N+](=O)[O-])c(C(F)(F)F)c1 show?
0.92

Bench note: what normalised cell number did c1ccc(-c2ccc(C(c3ccccc3)n3ccnc3)cc2)cc1 (configuration not stated) show?
0.98

Bench note: what normalised cell number did CCC1(c2ccccc2)C(=O)NCNC1=O show?
1.02

Bench note: what normalised cell number did Cc1cn([C@H]2C[C@H](N=[N+]=[N-])[C@@H](CO)O2)c(=O)[nH]c1=O show?
1.06

Bench note: what normalised cell number did c1ccc(CC2=NCCN2)cc1 show?
0.88

Bench note: what normalised cell number did Oc1c(Cl)cc(Cl)c2cccnc12 show?
1.04

Bench note: what normalised cell number did CCCc1cc(=O)[nH]c(=S)[nH]1 show?
1.05

* * *

Exercise: state measured fraction signal for each of the molecules provided.
Assay: IRF3 reporter activation in THP-1 macrophages, cell-based, PMA-stimulated THP-1, luminescence (AID 1053176)
Conditions: PMA-differentiated THP-1, IRF3 reporter luminescence; stronger effect = higher value
Give the figure only, with no unit attached.

Bench note: what fraction signal did COc1ccccc1CCN=C1NC(=O)C(=Cc2ccc3ncccc3c2)S1 show?
0.39

Bench note: what fraction signal did O=C(Nc1n[nH]c2cc(-c3cc(F)ccc3F)ccc12)C1CC1 show?
-0.0055

Bench note: what fraction signal did CC1=C(C(=O)Nc2ccc3[nH]ncc3c2)C(c2ccc(Cl)c(Cl)c2)CC(=O)N1 (centres undefined) show?
-0.0025

Bench note: what fraction signal did Cn1cc(C2=C(c3cccc(N)c3)C(=O)NC2=O)c2ccccc21 show?
-0.005
